- test-description: chemical genetic growth profiling, strain panel (AID 1159580);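 also: tested at 20 µM; growth read once vehicle control cultures reached saturation at 30 °C; lower values mean less growth of the strain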
- experimental-context: S. cerevisiae deletion strains, growth OD, locus YBL061C, strain skt5
Out of some 5,500 compounds screened, about 2,000 (36%) were called active. Inconclusive results (about 18%) are left out. Rule as the data show it: active = normalized growth mostly below about 0.91 (no sharp cut-off); inconclusive = no clear call, values can overlap the other calls; inactive = mostly above about 0.92. This is one part of the list.
Form entry, call: pick from true (active), false (inactive)

Cc1ccc(N=CN(C)C=Nc2ccc(C)cc2C)c(C)c1; false
CC(C)=CCCC1(C)C=Cc2c(O)c3c(c(CC=C(C)C)c2O1)OC12C(=CC4CC1C(C)(C)OC2(C/C=C(/C)C(=O)O)C4=O)C3=O (stereo not given); true
CCOC(=O)OC(C)OC(=O)C1N2C(=O)C(NC(=O)[C@H](N)c3ccccc3)C2SC1(C)C (stereo not given in full); false
Nc1c2ccccc2nc2ccccc12 (tested in a mixture with another compound); true
OC(CCN1CCCC1)(c1ccccc1)C1CCCCC1 (stereo not given); false

Q: Recorded call for CNCc1ccccc1 ?
A: false

Q: // outcome(item) with item = Nc1ccccc1C(=O)CC(N)C(=O)O (stereo not given)
A: false

Q: Test call, this molecule: COc1ccc2c3c([nH]c2c1)C(C)=NCC3
A: false

Q: Write down the call the test reported for this molecule. Item: COc1cccc2c1C(=O)c1c(O)c3c(c(O)c1C2=O)C[C@@](O)(C(=O)CO)C[C@@H]3O[C@H]1C[C@H](N)[C@@H](O)[C@H](C)O1
A: true

Q: Outcome? COc1c(-c2coc3cc4c(cc3c2=O)CC(O)C(C)(C)O4)ccc2c1C=CC(C)(C)O2 (stereo not given)
A: false

Q: What was the test verdict on CCC(C)C(=O)O[C@H]1[C@H](O)C2C(CN3CC(C)CCC3[C@@]2(C)O)C2C[C@]34O[C@]5(O)C(OC(=O)C(C)(O)CC)CC[C@@]3(C)C5C(OC(C)=O)[C@@H](OC(C)=O)C4[C@@]21O (stereo not given in full) ?
A: false

Q: Kindly provide the recorded test outcome for the following molecule: OC(CCN1CCCCC1)(c1ccccc1)C1CCCCC1 (stereo not given)
A: false

Q: Any idea what this test logged for N#CC(O[C@@H]1O[C@H](CO[C@@H]2O[C@H](CO)[C@@H](O)[C@H](O)[C@H]2O)[C@@H](O)[C@H](O)[C@H]1O)c1ccccc1 (stereo not given in full) ?
A: false

Q: Could you please tell me the result logged for COc1cc(N)c(Cl)cc1C(=O)NC1CCN(Cc2ccccc2)CC1 in this assay?
A: false

Q: Would you mind telling me which call this test gave COc1ccc2c(c1)c(CC(=O)OCC(=O)O)c(C)n2C(=O)c1ccc(Cl)cc1 ?
A: false

Q: Entry Nc1ccc(S(=O)(=O)c2ccc(N)cc2)cc1 : call = ?
A: false

Q: Give the logged outcome of this assay for the following molecule: NNc1nncc2ccccc12
A: false

Q: Recorded call for Nc1c2c(nc3ccccc13)CCCC2 ?
A: false

Q: So what was the verdict on COc1ccc2c(c1)c(CC(=O)O)c(C)n2C(=O)c1ccc(Cl)cc1 in this test?
A: false

Q: Hi, sorry to bother you, what did the test record for Cc1cn([C@H]2C[C@H](N=[N+]=[N-])[C@@H](CO)O2)c(=O)[nH]c1=O ?
A: false
